Listed below: Plant response rating, Corn values for each entry.
test system: corn; assay: Test C pre-/postemergence herbicide test; type: in vivo, Zea mays; settings: 500 g ai/ha; scale 0 to 100 (0 no effect, 100 complete control); visual, 12 to 14 days; preemergence
EXPERIMENTAL ENDPOINT: Plant response rating, Corn

CCc1nn(C(C)(C)C)nc1C(=O)Nc1cccc(C(=O)NC2CC2)c1 [Compound 417] ... 65
CCn1nc(C2(C)CC2)cc1C(=O)Nc1cccc(C(=O)N2CC=CC2)c1 [Compound 304] ... 30
CCn1nc(C(C)(C)C)cc1C(=O)Nc1cc(C(=O)N2CCCC2)ccc1F [Compound 242] ... 25
CCC1=NN(C(C)(C)C)CC1C(=O)Nc1cc(C(=O)N2CCCC2)ccc1F (racemic) [Compound 341] ... 90
CCc1nn(C(C)(C)CC)nc1C(=O)Nc1cccc(C(=O)N(C)C)c1 [Compound 372] ... 65

====

test system: giant foxtail; experiment: Test C pre-/postemergence herbicide test; format: in vivo, Setaria faberi; details: Preemergence, 500 g ai/ha; scale 0 to 100, 0 no effect, 100 complete control
EXPERIMENTAL ENDPOINT: Foxtail, Giant plant response rating

CCNC(=O)c1cc(C)nc(NC(=O)c2cc(C(C)(C)C)nn2CC)c1 [Compound 149] ... 100
CCNC(=O)c1ccnc(NC(=O)c2cc(C(C)(C)C)nn2CC)c1 [Compound 152] ... 100
C=CCNC(=O)c1cccc(NC(=O)c2sc(C(C)(C)C)nc2C)c1 [Compound 202] ... 100
CCn1nc(C(C)(C)C)cc1C(=O)Nc1cccc(S(=O)(=O)C(F)(F)F)c1 [Compound 134] ... 85
CC(=NO)c1cccc(NC(=O)c2cc(C(C)(C)C)nn2C)c1 [Compound 102] ... 80

====

tested on: velvetleaf; test: Test B pre-/postemergence herbicide test; format: in vivo, Abutilon theophrasti; settings: postemergence, 125 g ai/ha; visual rating, scale 0 (no effect) to 100 (complete control)
Listed below: Velvetleaf plant response rating values for each entry.
EXPERIMENTAL ENDPOINT: Velvetleaf plant response rating

CCn1nc(C(C)(C)C)cc1C(=O)Nc1cccc(C(=O)OC(C)C)c1C [Compound 92] ... 0
C=CCOC(=O)c1cccc(NC(=O)c2cc(C(C)(C)C)nn2CC)c1C [Compound 94] ... 10
C=CCOC(=O)c1cccc(NC(=O)c2cc(C(C)(C)C)nn2CC)c1 [Compound 85] ... 60
CCn1nc(C(C)(C)C)cc1C(=O)Nc1cccc(C(=O)OC)c1 [Compound 81] ... 80
CCn1nc(C(C)(C)C)cc1C(=O)Nc1cccc(C(=O)N(C)CC#N)n1 [Compound 158] ... 50
C#CCNC(=O)c1cccc(NC(=O)c2sc(C(C)(C)C)nc2C)c1 [Compound 203] ... 0
C#CCNC(=O)c1cccc(NC(=O)c2sc(C(C)(C)C)nc2CC)n1 [Compound 217] ... 0
CCCOC(=O)c1cc(NC(=O)c2cc(C(C)(C)C)nn2CC)c(F)cc1F [Compound 249] ... 10
C#CCN(C)C(=O)c1ccnc(NC(=O)c2cc(C(C)(C)C)nn2CC)c1 [Compound 160] ... 70
CCC(=NO)c1cccc(NC(=O)c2cc(C(C)(C)C)nn2C)c1 [Compound 118] ... 20
C=Cn1nc(C(C)(C)C)cc1C(=O)Nc1cccc(C(=O)OCC)c1 [Compound 78] ... 70
CCN(CC)C(=O)c1cc(NC(=O)c2cc(C(C)(C)C)nn2CC)ccc1C [Compound 69] ... 0

====

Listed below: Plant response rating, Barnyardgrass values for each entry.
system: barnyardgrass; test: Test B pre-/postemergence herbicide test; format: in vivo, Echinochloa crus-galli; conditions: preemergence, 125 g ai/ha; 0 to 100 scale, 0 is no effect, 100 is complete control
EXPERIMENTAL ENDPOINT: Plant response rating, Barnyardgrass

C=Cn1nc(C(C)(C)C)cc1C(=O)Nc1cccc(C(=O)OCC)c1 [Compound 78] ... 0
CCn1nc(C(C)(C)C)cc1C(=O)Nc1cccc(C(=O)NOC)c1 [Compound 67] ... 0
CCn1nc(C(C)(C)C)cc1C(=O)Nc1cccc2c1CNC2=O [Compound 52] ... 10

====

system: chickweed; assay: Test C postemergence herbicide test; type: in vivo, Stellaria media; conditions: Postemergence; 250 g ai/ha; scale 0 to 100, 0 no effect, 100 complete control
Listed below: Plant response rating, Chickweed values for each entry.
EXPERIMENTAL ENDPOINT: Plant response rating, Chickweed

C#CCOC(=O)c1cccc(NC(=O)c2cc(C(C)(C)C)nn2CC)c1 ... 70
CCn1nc(C(C)(C)C)cc1C(=O)Nc1cccc(OC(F)(F)F)c1 ... 100
CCn1nc(C(C)(C)C)cc1C(=O)Nc1ccc(F)c(C(=O)NCCF)c1 ... 10
CC(=NO)c1cccc(NC(=O)c2cc(C(C)(C)C)nn2CC(F)(F)F)c1 ... 100
CCn1nc(C(C)(C)C)cc1C(=O)Nc1cccc(C(=O)OC)c1 ... 100

====

system: wheat; assay: Test B postemergence herbicide test; type: in vivo, Triticum aestivum; parameters: key: 0 = no effect, 100 = complete control; conditions: postemergence, 125 g ai/ha; visual rating, scale 0 (no effect) to 100 (complete control)
EXPERIMENTAL ENDPOINT: Wheat plant response rating

CCc1nn(C(C)(C)C)cc1C(=O)Nc1cccc(C(C)=NO)c1 [Compound 188] ... 0
C#CCNC(=O)c1cccc(NC(=O)c2sc(C(C)(C)C)nc2C)c1 [Compound 203] ... 0
CCCc1nn(C(C)(C)C)cc1C(=O)Nc1cccc(C(=O)N(CC)CC)c1 [Compound 185] ... 0
CCOC(=O)c1cccc(NC(=O)c2cc(C(C)(C)C)nn2CCF)c1 [Compound 79] ... 30

====

system: pigweed; experiment: Test B pre-/postemergence herbicide test; assay type: in vivo, Amaranthus retroflexus; details: 125 g ai/ha; visual rating, scale 0 (no effect) to 100 (complete control); postemergence
Listed below: Pigweed plant response rating values for each entry.
EXPERIMENTAL ENDPOINT: Pigweed plant response rating

CCC1=NN(C(C)(C)C)CC1C(=O)Nc1cc(C(=O)N2CCCC2)ccc1F (racemic) [Compound 341] ... 30
Cc1nn(C(C)(C)C)cc1C(=O)Nc1cc(C(=O)N(C)C)ccc1F [Compound 344] ... 20
COC(=O)c1ccc(F)c(NC(=O)c2nn(C(C)C)nc2C)c1 [Compound 398] ... 0
CCn1nc(C2(C)CC2)cc1C(=O)Nc1cccc(C(=O)N2CC=CC2)c1 [Compound 304] ... 90

====

Listed below: Plant response rating, Velvetleaf values for each entry.
system: velvetleaf; assay: Test B pre-/postemergence herbicide test; assay type: in vivo, Abutilon theophrasti; conditions: 500 g ai/ha; visual rating 0-100, 0 no effect, 100 complete control; preemergence
EXPERIMENTAL ENDPOINT: Plant response rating, Velvetleaf

CCn1nc(C(C)(C)C)cc1C(=O)Nc1cccc(C(=O)N(C)CC#N)n1 ... 80
CCNC(=O)c1cc(C)nc(NC(=O)c2cc(C(C)(C)C)nn2CC)c1 ... 40
CCc1nn(C(C)(C)C)cc1C(=O)Nc1cc(C(=O)NC)ccc1F ... 60
CCc1nn(C(C)(C)C)cc1C(=O)Nc1cccc(C(C)=NO)c1 ... 100
C=CCn1nc(C(C)(C)C)cc1C(=O)Nc1cccc(C(C)=O)c1 ... 10
CCn1nc(C(C)(C)C)cc1C(=O)Nc1nc(OC)cc(SCF)n1 ... 0
CC(=NO)c1cccc(NC(=O)c2cc(C(C)(C)C)nn2CC(F)(F)F)c1 ... 50
CC(=NO)c1cccc(NC(=O)c2cc(C(C)(C)C)nn2C)c1 ... 70
CCn1nc(C(C)(C)C)cc1C(=O)Nc1cccc(C(=O)NC2CC2)n1 ... 90
CCCc1nn(C(C)(C)C)cc1C(=O)Nc1cccc(C(=O)N(CC)CC)c1 ... 50
CCn1nc(C(C)(C)C)cc1C(=O)Nc1cccc(C(=O)OCC2CC2)c1C ... 10
CC(=NO)c1ccnc(NC(=O)c2cc(C(C)(C)C)nn2C)n1 ... 0
C=CCN(C)C(=O)c1cccc(NC(=O)c2cc(C(C)(C)C)nn2CC)n1 ... 90
CCN(CC)C(=O)c1cccc(NC(=O)c2cc(C(C)(C)C)nn2CC)n1 ... 100
C=CCN(C)C(=O)c1ccnc(NC(=O)c2cc(C(C)(C)C)nn2CC)c1 ... 90
CCC(=NO)c1cccc(NC(=O)c2cc(C(C)(C)C)nn2C)c1 ... 10
C#CCN(C)C(=O)c1ccnc(NC(=O)c2cc(C(C)(C)C)nn2CC)c1 ... 80
